What apparent KD of MS2 coat protein was measured for each of the following?
# System: MS2 coat protein
# Assay Info: apparent KD of MS2 coat protein; designed switch direction (-1 OFF switch, 1 ON switch): 1; higher = weaker reporter binding
# Experimental Setup: Eterna round: R95; input ligand: FMN 200 uM
Return type: number; implicit unit nM.

Give the reported apparent KD of MS2 coat protein for this sequence. GGUCCGGCCUGAGCUGGACCGAGGCAUGUACAUGAGGAUCACCCAUGUUCAUGUGCAGGCUUUUUGCUCGUCUUGUG [JL-shm-2.06 JL mod] (puzzle: Sensor for hsa-mir-208a)
49.6

Give the reported apparent KD of MS2 coat protein for this sequence. CAGCGCUGUCGAGAGGAUAUGCGGUGAUGGACAUGAGGAUCACCCAUGUUAGCGACAGCAUCACGGCAGAAGGCUCUACCGCUGG [Soteed Omei mod 42] (puzzle: Same State 2)
12.6

Give the reported apparent KD of MS2 coat protein for this sequence. UUAAAACAUGAGGAUCACCCAUGUCAACAAAGUCGAGGAUAUGGGCAAUUAUUAUUAGAACCAGAAGGCGAAUAUU [Mat - Same State 1 - Mod of UCT - D28] (puzzle: Same State 1)
27.1

Give the reported apparent KD of MS2 coat protein for this sequence. UAAACUUCUUUUAGUGUAAUGCAUGUGAUACAUGAGGAUCACCCAUGUUUUGGUUCGUUUUAUUUUGUUCGUCUUAA [JR_SHM208A_Sub078] (puzzle: Sensor for hsa-mir-208a)
59.3

Give the reported apparent KD of MS2 coat protein for this sequence. UAGUACAUGCUUUUUGUCUGUCUUAGAUCACAUGAGGAUCACCCAUGUUUGGUGAAAGUUAUAUAGUUUAUGACUAU [JR_SHM208A_Sub059] (puzzle: Sensor for hsa-mir-208a)
114
